Cited source: patent US20240058465A1

targetOfAssay: T1, human ROR1 Frizzled domain (hROR1-Fz) (human, UniProt Q01973 165-305)
T1 construct: Acro Biosystems, made in HEK293
T1 sequence (Q01973 other isoform, or with tags, fused parts or gaps): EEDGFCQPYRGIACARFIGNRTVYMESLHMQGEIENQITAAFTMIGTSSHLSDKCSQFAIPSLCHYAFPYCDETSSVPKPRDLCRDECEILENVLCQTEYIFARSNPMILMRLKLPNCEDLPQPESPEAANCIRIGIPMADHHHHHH
procedureText: SPR Biacore, IgG on anti-Fc, ROR1-Fz analyte

| binder | kon, M⁻¹ s⁻¹ |
| --- | --- |
| SRP2196-B01 (antibody, V domains shown, His/FLAG-tagged IgG1) VH: EVQLVESGGGLVQPGGSLRLSCAASGFNITGYYIHWVRQAPGKGLEWVGQISPNSGYTYYADSVKGRFTISADTSKNTTYLQMNSLRAEDTAVYYCARDSRRYVRSWDYWGQGTLVTVSS VL: QAVVTQESALTTSPGETVTLTCRSSTGAVTTSNYANWVQEKPDHLFTGLIGGTNKRAPGVPARFSGSLIGDKAALTITGAQTEDEAIYFCALWYSNLWVFGGGTKLTVL | 131000 |
| SRP2196-B10 (antibody, V domains shown, His/FLAG-tagged IgG1; also called Antibody 167) VH: EVQLVESGGGLVQPGGSLRLSCAASGFNITGYYIHWVRQAPGKGLEWVGSITPLSGATSKADSVKGRFTISADTSKNTAYLQMNSLRAEDTAVYYCARDSRRYIRSWDYWGQGTLVTVSS VL: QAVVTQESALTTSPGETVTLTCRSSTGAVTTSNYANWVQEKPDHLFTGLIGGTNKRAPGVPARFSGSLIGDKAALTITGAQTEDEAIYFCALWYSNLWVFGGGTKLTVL | 128000 |
